Measured IC50 accompanies every entry in the list below.
Target: IDH2 R172K (Homo sapiens, UniProt P48735, R172K)
Sequence (P48735 40-452 R172K): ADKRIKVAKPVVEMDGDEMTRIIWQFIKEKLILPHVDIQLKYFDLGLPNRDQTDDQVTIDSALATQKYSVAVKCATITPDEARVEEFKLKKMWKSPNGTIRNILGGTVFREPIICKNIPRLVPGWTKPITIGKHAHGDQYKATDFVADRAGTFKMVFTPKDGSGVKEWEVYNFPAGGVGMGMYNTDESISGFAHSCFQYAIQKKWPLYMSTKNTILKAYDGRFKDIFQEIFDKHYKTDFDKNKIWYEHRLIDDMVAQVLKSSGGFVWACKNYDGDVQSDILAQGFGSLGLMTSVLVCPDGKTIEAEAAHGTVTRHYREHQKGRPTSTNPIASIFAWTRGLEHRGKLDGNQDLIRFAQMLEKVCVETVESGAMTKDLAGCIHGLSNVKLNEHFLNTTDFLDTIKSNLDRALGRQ
Assay: IDH2 R172K enzymatic assay (NADPH cofactor depletion, diaphorase/resazurin readout)
Conditions: read-out: Enz R172K

[[record]]
molecule = "CC(F)(F)c1cccc(-c2nc(NCC3CC3)nc(Nc3cc(Cl)cc(S(C)(=O)=O)c3)n2)n1"
reportedresult = "< 100 nM"

[[record]]
molecule = "CS(=O)(=O)c1cc(Cl)cc(Nc2nc(NCC3CC3)nc(-c3cccc(C(F)(F)F)n3)n2)c1"
reportedresult = "< 100 nM"

[[record]]
molecule = "CC(C)Nc1nc(Nc2ccnc(C(F)(F)F)c2)nc(-c2cccc(C(F)(F)F)n2)n1"
reportedresult = "< 100 nM"

[[record]]
molecule = "CC(C)Nc1nc(Nc2ccnc(C(F)(F)F)c2)nc(-c2cc(O)cc(F)c2)n1"
reportedresult = "< 100 nM"

[[record]]
molecule = "CCC(C)Nc1nc(Nc2ccncc2)nc(-c2ccccc2)n1 (centres unmarked)"
reportedresult = "100 to 1000 nM"


Need IC50, item CC(C)Nc1nc(Nc2cncc(F)c2)nc(-c2c(F)cccc2F)n1
< 100 nM
